# Test system: Mycosphaerella graminicola; Anamorph: Septoria tritici; Bayer Code SEPTTR (standard laboratory isolate, SI SEPTTR)
# procedure.summary: Type A (high volume) assay, leaf blotch of wheat, standard laboratory SEPTTR isolate (SI SEPTTR)
# Assay type: in vivo, Mycosphaerella graminicola on wheat plants (variety Yuma)
# details: Zymoseptoria tritici, 72 h, standard laboratory isolate; high volume; 50 ppm; 3 Day Curative; wheat (Yuma); read-out: Disease Control, SI SEPTTR Type A Assay (50 ppm) 3 DC
For each record, write down the corresponding pest or weed control at 50 ppm.

See these solved cases before continuing.
molecule="CC(C)(C)C(O)(Cn1cnnn1)c1ccc(Oc2ccc(Cl)cc2)cn1 (centres unmarked)" reported_endpoint="pest or weed control at 50 ppm" measured_result="80 to 100%"
molecule="OC(c1cncnc1)(c1ccc(-c2ccc(OC(F)F)cc2)cn1)C1CC1 (centres unmarked)" reported_endpoint="pest or weed control at 50 ppm" measured_result="80 to 100%"

Hi, could you look up pest or weed control at 50 ppm for each item in my list?
1. OC(Cc1ccc(Cl)cc1F)(c1cncnc1)c1ccc(Oc2ccc(Cl)cc2)cn1 (centres unmarked)
2. CC(C)(C)C(O)(c1cncnc1)c1ccc(-c2ccc(OC(F)F)cc2)cn1 (centres unmarked)
3. OC(CCc1ccc(F)cc1F)(Cn1cnnn1)c1ccc(Oc2ccc(C(F)(F)F)cn2)cn1 (centres unmarked)

Return:
["80 to 100%", "80 to 100%", "40 to 59%"]

====

# Tested on: Mycosphaerella graminicola; Anamorph: Septoria tritici; Bayer Code SEPTTR (standard laboratory isolate, SI SEPTTR)
# procedure.summary: Type A (high volume) assay, leaf blotch of wheat, standard laboratory SEPTTR isolate (SI SEPTTR)
# Assay type: in vivo, Mycosphaerella graminicola on wheat plants (variety Yuma)
# details: Zymoseptoria tritici, 24 h, standard laboratory isolate; high volume; 50 ppm; 1 Day Protectant; wheat (Yuma); read-out: Disease Control, SI SEPTTR Type A Assay (50 ppm) 1 DP
reported.endpoint: pest or weed control at 50 ppm

compound="CC(C)(C)C(O)(c1cncnc1)c1ccc(-c2ccccc2)cn1 (centres unmarked)" reported_endpoint="pest or weed control at 50 ppm" measured_result="60 to 79%"
compound="OC(Cc1ccc(F)cc1)(c1cncnc1)c1ccc(-c2ccc(OC(F)(F)F)cc2)cn1 (centres unmarked)" reported_endpoint="pest or weed control at 50 ppm" measured_result="80 to 100%"
compound="CN(C)c1ccc(-c2ccc(C(O)(c3cncnc3)C(C)(C)C)nc2)cc1 (centres unmarked)" reported_endpoint="pest or weed control at 50 ppm" measured_result="80 to 100%"
compound="CCC(C)(C)C(O)(Cc1cncnc1)c1ccc(-c2ccc(Cl)cc2)cn1 (centres unmarked)" reported_endpoint="pest or weed control at 50 ppm" measured_result="80 to 100%"
compound="OC(c1cncnc1)(c1ccc(Oc2cccc(Cl)n2)cn1)C1CC1 (centres unmarked)" reported_endpoint="pest or weed control at 50 ppm" measured_result="< 40%"
compound="N#Cc1ccc(Oc2ccc(C(O)(c3cncnc3)C3CC3)nc2)cc1 (centres unmarked)" reported_endpoint="pest or weed control at 50 ppm" measured_result="< 40%"
compound="Cc1ncncc1C(O)(c1ccc(-c2ccc(OC(F)(F)F)cc2)cn1)C(C)(C)C (centres unmarked)" reported_endpoint="pest or weed control at 50 ppm" measured_result="80 to 100%"
compound="OC(CCc1ccc(Cl)cc1F)(Cn1cnnn1)c1ccc(Oc2ccc(C(F)(F)F)cn2)cn1 (centres unmarked)" reported_endpoint="pest or weed control at 50 ppm" measured_result="80 to 100%"

Batch lookup, pest or weed control at 50 ppm per entry.
1. CCC(C)(C)C(O)(c1cccnc1)c1ccc(-c2ccc(OC(F)(F)F)cc2)cn1 (centres unmarked)
2. OC(c1cccnc1)(c1ccc(-c2ccc(OC(F)(F)F)cc2)cn1)c1ccc(F)cc1F (centres unmarked)
3. Cc1ncc(C(O)(c2ccc(-c3ccc(OC(F)(F)F)cc3)cn2)C(C)(C)C)cn1 (centres unmarked)
4. CC(C)C(O)(c1cncnc1)c1ccc(-c2ccc(OCC(F)(F)F)nc2)cn1 (centres unmarked)
5. CC(C)(C)C(O)(c1cncnc1)c1ccc(-c2ccc(C(F)(F)F)nc2)cn1 (centres unmarked)
6. CC(F)(F)c1ccc(-c2ccc(C(O)(c3cncnc3)C(C)(C)C)nc2)cc1 (centres unmarked)

Return:
["80 to 100%", "80 to 100%", "40 to 59%", "80 to 100%", "80 to 100%", "80 to 100%"]

Give pest or weed control at 50 ppm for all compounds that follow.
1. CC(C)(C)C(O)(c1cncnc1)c1ccc(-c2ccsc2)cn1 (centres unmarked)
2. OC(CCc1ccc(F)cc1F)(Cn1cnnn1)c1ccc(Oc2ccc(C(F)(F)F)cn2)cn1 (centres unmarked)
3. CC(C)(C)C#CC(O)(c1cncnc1)c1ccc(Oc2ccc(C(F)(F)F)cc2)cn1 (centres unmarked)

Return:
1: 80 to 100%; 2: < 40%; 3: 80 to 100%

====

# System: Mycosphaerella graminicola; Anamorph: Septoria tritici; Bayer Code SEPTTR (standard laboratory isolate, SI SEPTTR)
# procedure.summary: Type A (high volume) assay, leaf blotch of wheat, standard laboratory SEPTTR isolate (SI SEPTTR)
# Format: in vivo, Mycosphaerella graminicola on wheat plants (variety Yuma)
# details: Zymoseptoria tritici, 24 h, standard laboratory isolate; high volume; 50 ppm; 1 Day Protectant; wheat (Yuma); read-out: Disease Control, SI SEPTTR Type A Assay (50 ppm) 1 DP
Give measured pest or weed control at 50 ppm for each item. Keep answers brief.

Answered examples (8):
compound="CSc1ccc(-c2ccc(C(O)(c3cncnc3)C(C)(C)C)nc2)cc1 (stereo not drawn)" measured_result="80 to 100%"
compound="CC(C)(C)C(O)(c1cncnc1)c1ccc(-c2cncnc2)cn1 (stereo not drawn)" measured_result="60 to 79%"
compound="CC(C)(C)C(O)(c1cccnc1)c1ccc(-c2ccc(C3(C#N)CC3)cc2)cn1 (stereo not drawn)" measured_result="80 to 100%"
compound="OC(Cc1ccc(Cl)cc1F)(Cn1cnnn1)c1ccc(-c2ccc(OC(F)(F)F)cc2)cn1 (stereo not drawn)" measured_result="60 to 79%"
compound="N#Cc1ccc(Oc2ccc(C(O)(Cn3cnnn3)C3CC3)nc2)cc1 (stereo not drawn)" measured_result="< 40%"
compound="Cc1cc(OC(F)(F)F)ccc1-c1ccc(C(O)(c2cccnc2)C(C)(C)C)nc1 (stereo not drawn)" measured_result="80 to 100%"
compound="CCC(O)(c1cncnc1)c1ccc(Oc2ccc(Cl)cn2)cn1 (stereo not drawn)" measured_result="< 40%"
compound="Cc1cc(OC(F)(F)F)ccc1-c1ccc(C(O)(c2cncnc2)C(C)(C)C)nc1 (stereo not drawn)" measured_result="80 to 100%"

Below are 7 compounds. Give each one its pest or weed control at 50 ppm.
1. CC(C)(C)C(O)(c1cncnc1)c1ccc(-c2ccc(C3(C(F)(F)F)CC3)cc2)cn1 (stereo not drawn)
2. CC(C)(C)C#CC(O)(c1cncnc1)c1ccc(Oc2ccc(Cl)cn2)cn1 (stereo not drawn)
3. COc1ccc(-c2ccc(C(O)(c3cncnc3OC)C(C)(C)C)nc2)cn1 (stereo not drawn)
4. CC(C)C(O)(c1cncnc1)c1ccc(Oc2cccc(Cl)n2)cn1 (stereo not drawn)
5. CC(C)(C#N)c1ccc(-c2ccc(C(O)(c3cncnc3)C(C)(C)C)nc2)cc1 (stereo not drawn)
6. CC(C)(C)C(O)(c1cncnc1)c1ccc(-c2ccc(OC(F)F)cc2)cn1 (stereo not drawn)
7. OC(c1ccc(-c2ccc(OC(F)(F)F)cc2)cn1)(c1cncs1)C1CC1 (stereo not drawn)

Return:
1: 80 to 100%; 2: 60 to 79%; 3: 80 to 100%; 4: 80 to 100%; 5: 80 to 100%; 6: 80 to 100%; 7: 80 to 100%

Please look at the items below and tell me pest or weed control at 50 ppm for each one, in order.
1. OC(CCc1ccc(F)cc1F)(Cn1cnnn1)c1ccc(Oc2ccc(Cl)cn2)cn1 (stereo not drawn)
2. CC(C)(C)C(O)(Cc1cncnc1)c1ccc(-c2ccc(Cl)cc2)cn1 (stereo not drawn)
3. OC(c1cncnc1)(c1ccc(Oc2ccc(C(F)(F)F)cc2)cn1)C1CC1 (stereo not drawn)

Return:
80 to 100%
80 to 100%
80 to 100%

====

So I've got a bunch of molecules here, and I need their pest or weed control at 50 ppm values.
# Tested on: Mycosphaerella graminicola; Anamorph: Septoria tritici; Bayer Code SEPTTR (standard laboratory isolate, SI SEPTTR)
# procedure.summary: Type A (high volume) assay, leaf blotch of wheat, standard laboratory SEPTTR isolate (SI SEPTTR)
# Format: in vivo, Mycosphaerella graminicola on wheat plants (variety Yuma)
# details: Zymoseptoria tritici, 24 h, standard laboratory isolate; high volume; 50 ppm; 1 Day Protectant; wheat (Yuma); read-out: Disease Control, SI SEPTTR Type A Assay (50 ppm) 1 DP

Would you please look over these solved cases?
molecule="OC(Cc1cccc(F)c1)(c1cncnc1)c1ccc(-c2ccc(OC(F)(F)F)cc2)cn1 (centres unmarked)" measured_result="80 to 100%"
molecule="Cc1cncc(C(O)(c2ccc(-c3ccc(OC(F)(F)F)cc3)cn2)C(C)(C)C)c1 (centres unmarked)" measured_result="80 to 100%"
molecule="CCC(O)(c1cncnc1)c1ccc(Oc2ccc(Cl)nc2)cn1 (centres unmarked)" measured_result="< 40%"
molecule="COc1ncncc1C(O)(c1ccc(-c2ccc(C(C)(C)C#N)cc2C)cn1)C(C)(C)C (centres unmarked)" measured_result="60 to 79%"
molecule="CC(C)(C)C(O)(c1cncnc1)c1ccc(-c2ccc(OC3CC3)cc2)cn1 (centres unmarked)" measured_result="80 to 100%"
molecule="OC(c1cncnc1)(c1ccc(Oc2ccc(Cl)nc2)cn1)C1CC1 (centres unmarked)" measured_result="40 to 59%"
molecule="CC(C)(C)C(O)(Cn1cnnn1)c1ccc(-c2ccc(OC(F)(F)F)cc2)cn1 (centres unmarked)" measured_result="< 40%"

Enquiry: Fill in pest or weed control at 50 ppm for record Cc1ccc(Oc2ccc(C(O)(c3cncnc3)C(C)C)nc2)nc1 (centres unmarked)
Return: 40 to 59%

The reported numbers originate from patent US10167300B2.
